- Test system: CAKI-1
- TEST_PROTOCOL: NCI tumour cell line growth inhibition, 48 h
Calls of active or inactive are those of the source. Cut-off read from the data, not from the text of the source: active = GI50 up to about 1.1 µM and inactive = higher.
# valid calls are active, inactive; nothing else

{"COMPOUND": "CC(=O)Nc1ccc(-c2nc3ccccc3s2)cc1Br", "CATEGORY": "inactive"}
{"COMPOUND": "Cn1c(=O)c(C(c2ccccc2)c2c(O)c3ccccc3n(C)c2=O)c(O)c2ccccc21", "CATEGORY": "inactive"}

Test call, this compound: CC1=C2C(=O)OCC23C=COC3(C)O1 (centres undefined)
inactive

Note, next up: C[C@H]1[C@@H](c2ccccc2)O[B-](c2ccccc2)(c2ccccc2)[N+]1(C)C
inactive

Note, next up: O=C1C(=O)N(C2CCCCC2)C(=S)N1C1CCCCC1
inactive

Note, next up: Nc1[nH]c(=O)[nH]c(=O)c1Cc1cccc(Cl)c1
inactive

Note, next up: NC(=S)N/N=C(\Cc1nc2ccc(Cl)cc2nc1O)C(=O)Nc1ccc(Cl)cc1
inactive

Note, next up: COc1ccc(C(=O)C(C(=O)CCC(=O)Nc2cccc(Cl)c2)c2ccc(OC)cc2)cc1 (centres undefined)
inactive

Note, next up: Cc1ccc(S(=O)(=O)/N=C(\NN)Nc2ccc(Cl)cc2)cc1
inactive

Note, next up: O=c1[nH]c(=O)n(C2CC(O)C(CO)O2)cc1/N=N/NCCc1ccccc1 (centres undefined)
inactive

Note, next up: CCOC(=O)C1=C(C)N2CCOC2(C)C(C(=O)OC)C1c1cccc(Cl)c1 (centres undefined)
inactive

Note, next up: CN(C)CCNC(=O)c1cccc(CO)c1[N+](=O)[O-]
inactive

Note, next up: CCOC(=O)C1=C(C)NC(c2ccccc2)=C(C(=O)OCc2ccccc2)C1C#Cc1ccccc1 (centres undefined)
active

Note, next up: CCCCCC(=O)Nc1[nH]cnc1C(N)=O
inactive

Values compiled from ChEMBL document CHEMBL1201862.
